IC50 data for human TREX1 (Homo sapiens (Human), UniProt Q9NSU2) follow.

query: Sample N#CC[C@H](C(=O)NCc1ccc(Cl)c(Cl)c1)N1CCC(CCc2ccccc2)N2C[C@H](N)C[C@H]2C1=O (stereo partly shown) — what was its IC50?
result: < 1000 nM

query: Same again, this time with CC(C)C[C@H](C(=O)NCc1ccc(C#N)cc1)N1CCC(CCc2ccccc2)N2C[C@H](N)C[C@H]2C1=O (stereo partly shown)
result: < 1000 nM

query: Same again, this time with CCOC(=O)CC[C@H](C(=O)N1CCC[C@H]1c1ccc(Cl)c(Cl)c1)N1CCC(CCc2ccccc2)N2C[C@H](N)C[C@H]2C1=O (stereo partly shown)
result: < 1000 nM

query: Same again, this time with N[C@@H]1C[C@H]2C(=O)N([C@H](CCC(=O)O)C(=O)NCc3ccc(Cl)c(Cl)c3)CCC(COc3cccc(Cl)c3)N2C1 (stereo partly shown)
result: < 1000 nM

query: Same again, this time with CCOC(=O)CC[C@H](C(=O)N1CCCC[C@H]1c1ccc(Cl)c(Cl)c1)N1CCC(CCc2ccccc2)N2C[C@H](N)C[C@H]2C1=O (stereo partly shown)
result: < 1000 nM

query: Same again, this time with CC(C)C[C@H](C(=O)NCc1ccc(Cl)cc1Cl)N1CCC(CCc2ccccc2)N2C[C@H](N)C[C@H]2C1=O (stereo partly shown)
result: 1000 to 9990 nM

query: Same again, this time with COc1c(CNC(=O)[C@@H](CCC(N)=O)N2CCC(CCc3ccccc3)N3C[C@H](N)C[C@H]3C2=O)ccc(Cl)c1Cl (stereo partly shown)
result: < 1000 nM

query: Same again, this time with N[C@@H]1C[C@H]2C(=O)N([C@H](CCC(=O)O)C(=O)NCc3ccc(Cl)c(Cl)c3)CCC(COc3ccc(F)cc3)N2C1 (stereo partly shown)
result: < 1000 nM

query: Same again, this time with CC(C)C[C@H](C(=O)NCc1ccc(F)c(F)c1)N1CCC(CCc2ccccc2)N2C[C@H](N)C[C@H]2C1=O (stereo partly shown)
result: < 1000 nM

query: Same again, this time with N#CC[C@H](C(=O)N1CCOC[C@H]1c1ccccc1)N1CCC(CCc2ccccc2)N2C[C@H](N)C[C@H]2C1=O (stereo partly shown)
result: 1000 to 9990 nM

query: Same again, this time with Cc1nnc(CC[C@H](C(=O)NCc2ccc(Cl)c(Cl)c2F)N2CCC(CCc3ccccc3)N3C[C@H](N)C[C@H]3C2=O)[nH]1 (stereo partly shown)
result: < 1000 nM

query: Same again, this time with CC(C)C[C@H](C(=O)NCc1ccccc1Cl)N1CCC(CCc2ccccc2)N2C[C@H](N)C[C@H]2C1=O (stereo partly shown)
result: < 1000 nM

query: Same again, this time with N#CC[C@H](C(=O)N1CCOC[C@@H]1c1ccccc1)N1CCC(CCc2ccccc2)N2C[C@H](N)C[C@H]2C1=O (stereo partly shown)
result: 10000 to 100000 nM

----------
IC50 data for human TREX1 (Homo sapiens (Human), UniProt Q9NSU2) follow.

query: // fetch human TREX1 (Homo sapiens (Human), UniProt Q9NSU2) IC50 for CC(C)C[C@H](C(=O)NS(=O)(=O)c1ccccc1)N1CCC(CCc2ccccc2)N2C[C@H](N)C[C@H]2C1=O (stereo partly drawn)
result: < 1000 nM

query: Same again, this time with COc1ccc(CNC(=O)[C@@H](CC(C)C)N2CCC(CCc3ccccc3)N3C[C@H](N)C[C@H]3C2=O)cc1 (stereo partly drawn)
result: < 1000 nM

query: Same again, this time with CCOC(=O)N[C@@H]1C[C@H]2C(=O)N([C@H](CCC(=O)O)C(=O)NCc3ccc(Cl)c(Cl)c3)CCC(CCc3ccccc3)N2C1 (stereo partly drawn)
result: 10000 to 100000 nM

query: Same again, this time with Cc1ccc(OCC2CCN([C@H](CCC(=O)O)C(=O)NCc3ccc(Cl)c(Cl)c3)C(=O)[C@@H]3C[C@@H](N)CN23)cc1 (stereo partly drawn)
result: 1000 to 9990 nM

query: Same again, this time with NC(=O)C[C@H](C(=O)NCc1ccc(Cl)c(Cl)n1)N1CCC(CCc2ccccc2)N2C[C@H](N)C[C@H]2C1=O (stereo partly drawn)
result: < 1000 nM

query: Same again, this time with N=C(N)NCCC[C@H](C(=O)NCc1ccc(Cl)c(Cl)c1)N1CCC(CCc2ccccc2)N2C[C@H](N)C[C@H]2C1=O (stereo partly drawn)
result: < 1000 nM

----------
# experimentalTarget: human TREX1 (Homo sapiens (Human), UniProt Q9NSU2)
# Sequence (Q9NSU2 whole entry): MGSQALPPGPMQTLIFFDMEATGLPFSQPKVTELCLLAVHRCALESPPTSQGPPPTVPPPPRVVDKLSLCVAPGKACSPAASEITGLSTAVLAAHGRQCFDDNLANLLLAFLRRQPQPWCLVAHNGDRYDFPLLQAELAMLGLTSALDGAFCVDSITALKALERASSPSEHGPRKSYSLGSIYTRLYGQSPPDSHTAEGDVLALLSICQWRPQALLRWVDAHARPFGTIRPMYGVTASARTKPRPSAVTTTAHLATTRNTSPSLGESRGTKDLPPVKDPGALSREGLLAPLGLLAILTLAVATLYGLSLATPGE
I'd be grateful if you could share measured IC50 for these entries.

query: Sample N[C@@H]1C[C@H]2C(=O)N([C@H]3CCCN(S(=O)(=O)c4ccc(Cl)c(Cl)c4)C3)CCC(CCc3ccccc3)N2C1 (stereo partly drawn) — what was its IC50?
result: 1000 to 9990 nM

query: Same again, this time with N[C@@H]1C[C@H]2C(=O)N([C@H](CCC(=O)NO)C(=O)NCc3ccc(Cl)c(Cl)c3)CCC(CCc3ccccc3)N2C1 (stereo partly drawn)
result: < 1000 nM

query: Same again, this time with N#CC[C@H](C(=O)N1CCc2cc(Cl)c(Cl)cc2C1)N1CCC(CCc2ccccc2)N2C[C@H](N)C[C@H]2C1=O (stereo partly drawn)
result: 1000 to 9990 nM

query: Same again, this time with CC(C)C[C@H](C(=O)NS(=O)(=O)c1ccc(Cl)c(Cl)c1)N1CCC(CCc2ccccc2)N2C[C@H](N)C[C@H]2C1=O (stereo partly drawn)
result: 1000 to 9990 nM

query: Same again, this time with CCOC(=O)CC[C@H](C(=O)NCc1cc(Cl)c(Cl)cn1)N1CCC(CCc2ccccc2)N2C[C@H](N)C[C@H]2C1=O (stereo partly drawn)
result: < 1000 nM

query: Same again, this time with N[C@@H]1C[C@H]2C(=O)N([C@H]3CCCN(Cc4ccc(Cl)c(Cl)c4)C3=O)CCC(CCc3ccccc3)N2C1 (stereo partly drawn)
result: < 1000 nM

----------
# experimentalTarget: human TREX1 (Homo sapiens (Human), UniProt Q9NSU2)
# procedureSummary: TREX1 Exonuclease Assay
# Format: biochemical
I'd be grateful if you could share measured IC50 for these entries.

query: Sample N[C@@H]1C[C@H]2C(=O)N([C@H](CCC(=O)O)C(=O)NCc3ccc(Cl)c(Cl)c3)CCC(COc3ccc(Cl)cc3)N2C1 (stereo partly drawn) — what was its IC50?
result: < 1000 nM

query: Same again, this time with CC(C)C[C@H](C(=O)NCc1cc(Cl)cc(Cl)c1)N1CCC(CCc2ccccc2)N2C[C@H](N)C[C@H]2C1=O (stereo partly drawn)
result: 1000 to 9990 nM

query: Same again, this time with CCOC(=O)CC[C@H](C(=O)NCc1ccc(Cl)c(Cl)c1)N1CCC(CCc2ccccc2)N2C[C@H](NC(=O)OCC)C[C@H]2C1=O (stereo partly drawn)
result: 10000 to 100000 nM

query: Same again, this time with NC(=O)C[C@H](C(=O)NCc1ccc(Cl)c(Cl)c1)N1CCC(CCc2ccccc2)N2C[C@H](N)C[C@H]2C1=O (stereo partly drawn)
result: < 1000 nM

query: Same again, this time with CCOC(=O)CC[C@H](C(=O)N1CCOC[C@H]1c1ccc(Cl)c(Cl)c1)N1CCC(CCc2ccccc2)N2C[C@H](N)C[C@H]2C1=O (stereo partly drawn)
result: < 1000 nM

query: Same again, this time with N[C@@H]1C[C@H]2C(=O)N([C@@H]3CCCN(Cc4ccc(Cl)c(Cl)c4)C3=O)CCC(CCc3ccccc3)N2C1 (stereo partly drawn)
result: < 1000 nM

----------
pIC50 data for human TREX1 (Homo sapiens (Human), UniProt Q9NSU2) follow.
pIC50: −log10 of the molar value.

query: Sample N[C@@H]1C[C@H]2C(=O)N([C@H](CCC(=O)O)C(=O)NCc3ccc(Cl)cn3)CCC(CCc3ccccc3)N2C1 (stereo partly shown) — what was its pIC50?
result: > 6.00

query: Same again, this time with N[C@@H]1C[C@H]2C(=O)N([C@H](CCC(=O)O)C(=O)NCc3ccc(Cl)c(Cl)c3)CCC(COc3ccccc3Cl)N2C1 (stereo partly shown)
result: > 6.00

query: Same again, this time with N[C@@H]1C[C@H]2C(=O)N([C@@H]3CCCN(S(=O)(=O)c4ccccc4)C3)CCC(CCc3ccccc3)N2C1 (stereo partly shown)
result: 4.00 to 5.00

query: Same again, this time with N#CC[C@H](C(=O)NCc1ccc(Cl)c(C(F)(F)F)c1)N1CCC(CCc2ccccc2)N2C[C@H](N)C[C@H]2C1=O (stereo partly shown)
result: > 6.00

----------
# Test system: THP1 Dual cells, ISRE Lucia reporter gene, transfected with G3-YSD DNA
# procedureSummary: Human Cellular EC50 Reporter Assay
# Assay type: cell-based
# cond: 72 h, serum-starved cells transfected with G3-YSD 10 ng/ml, three days
pEC50: −log10 of the molar value.
I'd be grateful if you could share measured pEC50 for these entries.

query: Sample COc1c(CNC(=O)[C@@H](CCc2nnn[nH]2)N2CCC(CCc3ccccc3)N3C[C@H](N)C[C@H]3C2=O)ccc(Cl)c1Cl (stereo partly drawn) — what was its pEC50?
result: > 6.00

query: Same again, this time with CC(C)Oc1c(CNC(=O)[C@@H](CCC(=O)O)N2CCC(CCc3ccccc3)N3C[C@H](N)C[C@H]3C2=O)ccc(Cl)c1Cl (stereo partly drawn)
result: > 6.00

query: Same again, this time with CCOc1c(CNC(=O)[C@@H](CCC(=O)O)N2CCC(CCc3ccccc3)N3C[C@H](N)C[C@H]3C2=O)ccc(Cl)c1Cl (stereo partly drawn)
result: > 6.00

query: Same again, this time with N[C@@H]1C[C@H]2C(=O)N([C@H](CCc3nnn[nH]3)C(=O)NCc3ccc(Cl)c(Cl)c3F)CCC(CCc3ccccc3)N2C1 (stereo partly drawn)
result: 5.00 to 6.00

query: Same again, this time with COc1c(CNC(=O)[C@@H](CCC(=O)O)N2CCC(CCc3ccccc3)N3C[C@H](N)C[C@H]3C2=O)ccc(Cl)c1Cl (stereo partly drawn)
result: > 6.00

query: Same again, this time with N[C@@H]1C[C@H]2C(=O)N([C@H](CCC(=O)O)C(=O)NCc3ccc(Cl)c(Cl)c3F)CCC(CCc3ccccc3)N2C1 (stereo partly drawn)
result: 5.00 to 6.00
